# System: Staphylococcus FK 422
# Assay Procedure: MIC agar dilution test, Staphylococcus FK 422
# Format: cell-based
# Conditions Used: agar dilution test/isosensitest agar, unit assumed
# if measured MIC values < 0.06 µg/mL: yes  # else: no

Here are 6 compounds together with their reported answers.
O=C(O)c1cn(C2CC2)c2cc(N3CCNC(c4ccc(N5CCCCC5)cc4)C3)c(F)cc2c1=O (stereo not shown) [Example 8] = yes
O=C(O)c1cn(C2CC2)c2c(F)c(N3CCNC(c4ccccc4)C3)c(F)cc2c1=O (stereo not shown) [Example 16] = yes
O=C(O)c1cn(C2CC2)c2cc(N3CCNC(c4ccc(F)cc4)C3)c(F)cc2c1=O (stereo not shown) [Example 2] = yes
O=C(O)c1cn(C2CC2)c2cc(N3CCNC(c4ccccc4)C3)c(F)cc2c1=O (stereo not shown) [Example 1] = yes
Br.O=C(O)c1cn(C2CC2)c2cc(N3CCNC(c4ccc(O)cc4)C3)c(F)cc2c1=O (stereo not shown) [Example 14] = no
O=C(O)c1cn(C2CC2)c2cc(N3CCNC(c4cccc([N+](=O)[O-])c4)C3)c(F)cc2c1=O (stereo not shown) [Example 11] = no

Next, consider the following compound.
Inquiry: MIC values strictly < 0.06 µg/mL for this compound? CCn1cc(C(=O)O)c(=O)c2cc(F)c(N3CCNCC3)cc21 [Norfloxacin, reference compound]
Reply text: no
